target: Sucrase-isomaltase, intestinal (Rattus norvegicus); assay: Inhibition of rat intestinal sucrase
Sequence (P23739 1-1013 limits assumed): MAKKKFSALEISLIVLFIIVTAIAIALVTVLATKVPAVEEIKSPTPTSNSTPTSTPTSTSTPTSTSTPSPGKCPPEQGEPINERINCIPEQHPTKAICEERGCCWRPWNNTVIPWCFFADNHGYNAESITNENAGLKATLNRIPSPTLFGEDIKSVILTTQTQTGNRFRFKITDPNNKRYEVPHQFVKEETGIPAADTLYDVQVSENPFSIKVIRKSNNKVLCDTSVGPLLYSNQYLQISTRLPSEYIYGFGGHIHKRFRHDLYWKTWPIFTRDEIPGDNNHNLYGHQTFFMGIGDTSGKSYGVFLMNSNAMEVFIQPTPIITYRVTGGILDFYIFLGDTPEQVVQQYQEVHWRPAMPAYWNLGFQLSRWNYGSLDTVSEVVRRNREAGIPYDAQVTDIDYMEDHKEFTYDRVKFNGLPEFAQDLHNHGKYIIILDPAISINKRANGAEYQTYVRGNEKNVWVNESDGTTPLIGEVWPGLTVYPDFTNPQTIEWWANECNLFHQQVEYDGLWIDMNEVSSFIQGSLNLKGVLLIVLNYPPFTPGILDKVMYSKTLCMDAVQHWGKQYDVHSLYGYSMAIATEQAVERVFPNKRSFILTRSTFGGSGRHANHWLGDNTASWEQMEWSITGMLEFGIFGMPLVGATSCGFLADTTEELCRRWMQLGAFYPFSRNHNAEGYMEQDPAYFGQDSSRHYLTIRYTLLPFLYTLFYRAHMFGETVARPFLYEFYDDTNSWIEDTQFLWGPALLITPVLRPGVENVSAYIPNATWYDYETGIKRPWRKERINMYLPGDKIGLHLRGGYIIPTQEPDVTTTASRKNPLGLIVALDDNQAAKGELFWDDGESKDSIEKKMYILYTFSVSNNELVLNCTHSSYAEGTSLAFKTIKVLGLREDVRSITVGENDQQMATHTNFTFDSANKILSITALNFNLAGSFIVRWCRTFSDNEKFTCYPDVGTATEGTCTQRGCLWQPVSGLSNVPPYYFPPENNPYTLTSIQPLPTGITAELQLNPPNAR
Sequence (P23739 1014-1841 limits assumed): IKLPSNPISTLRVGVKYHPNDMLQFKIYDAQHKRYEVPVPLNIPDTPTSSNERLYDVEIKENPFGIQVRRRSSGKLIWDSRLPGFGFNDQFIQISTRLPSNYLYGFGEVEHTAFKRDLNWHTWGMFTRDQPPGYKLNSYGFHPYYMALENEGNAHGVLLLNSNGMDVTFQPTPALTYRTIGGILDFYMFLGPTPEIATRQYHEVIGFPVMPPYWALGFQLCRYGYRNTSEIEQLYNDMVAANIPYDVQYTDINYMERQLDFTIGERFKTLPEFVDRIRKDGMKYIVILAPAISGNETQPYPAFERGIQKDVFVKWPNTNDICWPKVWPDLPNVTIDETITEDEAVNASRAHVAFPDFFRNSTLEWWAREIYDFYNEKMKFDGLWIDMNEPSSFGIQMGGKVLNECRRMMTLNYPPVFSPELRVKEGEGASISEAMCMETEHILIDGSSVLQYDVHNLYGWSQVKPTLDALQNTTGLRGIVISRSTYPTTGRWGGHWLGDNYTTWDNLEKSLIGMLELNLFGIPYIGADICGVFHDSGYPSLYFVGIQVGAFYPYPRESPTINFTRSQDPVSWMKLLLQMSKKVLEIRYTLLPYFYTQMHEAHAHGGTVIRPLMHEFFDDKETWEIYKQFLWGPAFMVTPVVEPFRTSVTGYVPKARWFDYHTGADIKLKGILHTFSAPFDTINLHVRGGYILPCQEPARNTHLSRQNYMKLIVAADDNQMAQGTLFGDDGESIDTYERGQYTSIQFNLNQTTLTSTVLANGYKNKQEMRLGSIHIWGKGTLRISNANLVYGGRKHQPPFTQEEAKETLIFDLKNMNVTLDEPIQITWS
experimentalEndpoint: pIC50
Please note pIC50 is a logarithmic value: minus log10 of concentration in mol/L. Answer with that number alone.

pIC50 reading for OC[C@@H]1N[C@H](CO)[C@@H](O)[C@@H]1O : 3.00

---

experiment: Inhibition of bovine liver beta-galactosidase; design: species or system Bos taurus
So I've got a bunch of compounds here, and I need their IC50 values.

IC50 reading for OC[C@H]1N[C@H](CO)[C@@H](O[C@@H]2O[C@H](CO)[C@@H](O)[C@H](O)[C@H]2O)[C@@H]1O : 270 µM

IC50 reading for OC[C@H]1N[C@H](CO)[C@@H](O)[C@H]1O : 3.3 µM

---

assay: Inhibition of almond beta-glucosidase; design: species or system Prunus dulcis
experimentalEndpoint: IC50 (µM)
A number alone suffices; assume µM.

IC50 reading for OC[C@H]1N[C@H](CO)[C@@H](O)[C@H]1O : 7.8

IC50 reading for OC[C@@H]1N[C@H](CO)[C@@H](O)[C@@H]1O : 320

---

assay: Inhibition of alpha-L-fucosidase
experimentalEndpoint: pKi
Please note pKi is a logarithmic value: minus log10 of concentration in mol/L. Answer with that number alone.

pKi reading for OC[C@H]1O[C@H](OC[C@H]2NC[C@@H](O)[C@@H](O)[C@@H]2O)[C@H](O)[C@@H](O)[C@@H]1O : 4.72

pKi reading for C[C@@H]1O[C@@H](O[C@@H]2CN[C@H](CO)[C@@H](O)[C@@H]2O)[C@H](O)[C@H](O)[C@H]1O : 7.22

---

target: Sucrase-isomaltase, intestinal (Rattus norvegicus); experiment: Inhibition of rat intestinal isomaltase
experimentalEndpoint: pIC50
Please note pIC50 is a logarithmic value: minus log10 of concentration in mol/L. Answer with that number alone.

pIC50 reading for OC[C@@H]1N[C@H](CO)[C@@H](O)[C@@H]1O : 3.00
